# assay.procedure: Oral bioavailability in Sprague-Dawley rat
# Type: ADME, organism-based
# protocol.conditions: in vivo
measure: bioavailability (%)
Give the number; % is assumed, so skip it.

bioavailability recorded for this compound, Cc1cccc(NC(=O)c2ccc(-c3ccc(C#N)cc3)o2)c1 , is 4

* * *

# measurement.target: Sodium channel protein type 10 subunit alpha (Homo sapiens, UniProt Q9Y5Y9)
# Sequence (Q9Y5Y9 whole entry, looked up): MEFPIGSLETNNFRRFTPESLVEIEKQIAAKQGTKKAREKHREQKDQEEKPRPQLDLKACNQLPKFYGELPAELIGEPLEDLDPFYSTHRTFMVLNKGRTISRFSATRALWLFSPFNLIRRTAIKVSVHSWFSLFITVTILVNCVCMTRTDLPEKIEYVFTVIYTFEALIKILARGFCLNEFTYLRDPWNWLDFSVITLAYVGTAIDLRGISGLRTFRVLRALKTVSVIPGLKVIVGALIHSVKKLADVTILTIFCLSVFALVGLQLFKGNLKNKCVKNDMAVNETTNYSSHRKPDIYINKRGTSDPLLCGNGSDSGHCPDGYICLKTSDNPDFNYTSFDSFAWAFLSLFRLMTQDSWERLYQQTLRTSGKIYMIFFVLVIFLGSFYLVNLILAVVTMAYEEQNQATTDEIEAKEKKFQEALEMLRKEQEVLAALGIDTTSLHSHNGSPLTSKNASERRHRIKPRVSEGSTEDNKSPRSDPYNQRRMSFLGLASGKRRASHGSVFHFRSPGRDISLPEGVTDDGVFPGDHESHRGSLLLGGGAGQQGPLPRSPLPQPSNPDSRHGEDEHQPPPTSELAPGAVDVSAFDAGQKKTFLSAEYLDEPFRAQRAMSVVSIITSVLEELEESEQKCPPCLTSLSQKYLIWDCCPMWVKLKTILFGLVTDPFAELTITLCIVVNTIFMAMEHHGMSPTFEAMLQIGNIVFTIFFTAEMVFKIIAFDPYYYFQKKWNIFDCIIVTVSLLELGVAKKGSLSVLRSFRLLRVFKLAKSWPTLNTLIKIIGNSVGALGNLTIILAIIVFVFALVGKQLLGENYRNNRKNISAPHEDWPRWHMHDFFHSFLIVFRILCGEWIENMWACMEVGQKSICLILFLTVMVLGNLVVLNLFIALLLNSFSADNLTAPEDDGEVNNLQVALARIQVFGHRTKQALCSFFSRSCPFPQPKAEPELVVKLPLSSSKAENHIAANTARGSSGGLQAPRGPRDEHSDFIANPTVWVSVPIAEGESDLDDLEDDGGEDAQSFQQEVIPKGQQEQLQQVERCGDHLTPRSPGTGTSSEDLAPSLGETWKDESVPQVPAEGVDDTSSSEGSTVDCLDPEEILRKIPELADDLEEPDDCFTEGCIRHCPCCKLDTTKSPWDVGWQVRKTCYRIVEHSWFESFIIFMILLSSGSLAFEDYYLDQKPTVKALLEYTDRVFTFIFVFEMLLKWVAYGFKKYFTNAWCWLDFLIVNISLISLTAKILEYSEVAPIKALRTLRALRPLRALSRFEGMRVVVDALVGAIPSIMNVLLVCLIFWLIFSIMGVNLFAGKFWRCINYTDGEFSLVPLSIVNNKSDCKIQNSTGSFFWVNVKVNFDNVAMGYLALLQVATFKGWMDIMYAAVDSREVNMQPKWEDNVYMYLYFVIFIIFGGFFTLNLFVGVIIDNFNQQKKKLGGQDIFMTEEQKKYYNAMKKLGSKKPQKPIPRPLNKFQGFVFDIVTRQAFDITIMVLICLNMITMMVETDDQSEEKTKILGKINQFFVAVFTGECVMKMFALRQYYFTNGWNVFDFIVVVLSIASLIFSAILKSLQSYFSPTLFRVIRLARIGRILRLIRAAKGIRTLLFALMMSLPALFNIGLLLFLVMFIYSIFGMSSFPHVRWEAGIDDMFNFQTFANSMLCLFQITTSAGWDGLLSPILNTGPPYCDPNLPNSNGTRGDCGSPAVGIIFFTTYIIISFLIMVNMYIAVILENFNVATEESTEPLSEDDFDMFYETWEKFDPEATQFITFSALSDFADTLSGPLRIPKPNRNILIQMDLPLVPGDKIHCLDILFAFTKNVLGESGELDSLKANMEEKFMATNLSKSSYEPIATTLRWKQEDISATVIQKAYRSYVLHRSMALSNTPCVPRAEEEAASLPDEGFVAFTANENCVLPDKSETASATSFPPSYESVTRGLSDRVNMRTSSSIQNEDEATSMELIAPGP
# assay.procedure: Activity at human recombinant Nav 1.8 channel expressed in HEK293 cells in resting state with prepulse voltage of -100 mV assessed as blockade of TTx-resistant sodium current at 0.03 uM
# Format: cell-based
Listed here: items and their measured inhibition.
The number alone won't do; follow it with the unit.

CN1CCCc2cc(NC(=O)c3ccc(-c4ccc(Cl)cc4)o3)ccc21 :: 27%

inhibition recorded for this compound, Cc1cccc(N/C(=N/C#N)c2ccc(-c3ccc(Cl)cc3)o2)c1 , is 94%

inhibition recorded for this compound, Cc1cccc(NC(=O)c2ccc(-c3ccc(C#N)cc3)o2)c1 , is 29%

inhibition recorded for this compound, Cc1cccc(NC(=O)c2ccc(-c3ccc(Cl)cc3)o2)c1 , is 61%
